Test system: Trypanosoma cruzi amastigotes cultured in 3T3 fibroblast cells
assayNotes: Assay for proliferation of kinetoplastid parasite Trypanosoma cruzi (beta-galactosidase/CPRG readout)
Assay type: cell-based
assayConditions: NIH3T3, 144 h, Tulahuen strain in 3T3 cells, 6 day incubation, read-out: T cruzi EC50
Description: Compounds of the invention can be assayed to measure their capacity to inhibit proliferation of kinetoplastid parasite Trypanosoma cruzi. The screening procedure is for identifying compounds with inhibitor activity against Trypanosoma cruzi amastigotes cultured in 3T3 fibroblast cells. […] This allows for a colorimetric readout by using the substrate CPRG and an absorbance plate reader. […]
metricName: EC50 (nM)
Answers are plain numbers, in nM.

CC(C)OC(=O)Nc1cnc2nc(-c3cc(NC(=O)c4ccco4)ccc3Cl)[nH]c2c1 | 142

For each entry beneath this line, provide reported EC50.
1. CNc1cnc2nc(-c3cc(NC(=O)c4ccco4)ccc3Cl)[nH]c2c1
2. O=C(Nc1ccc(Cl)c(-c2nc3ncc([N+](=O)[O-])cc3[nH]2)c1)c1ccco1

1. 1270
2. 1020
